METHOD: In vitro evaluation of filtering parameters of formulations on PMMA plates (Diffey and Robson)
CONDITION CONTEXT: 3% (w/w) in O/W formulation, PMMA plates
Source text: It was decided to use a standard formulation oil in water (O/W). In vitro approaches consist in applying a thin film of sunscreen product on an artificial substrate and test, via spectrophotometric measures, the amount of UV radiation passing through the film. Several different artificial substrates are available for this type of analysis; the substrate should be as closed as possible to the physical characteristics of the skin. […]
READOUT NAME: λc (critical wavelength) (nm)
# value in nm; strip the unit string

Name the recorded λc (critical wavelength) of the compound listed here: `O=S(=O)(O)c1ccc2[nH]c(-c3ccccc3O)nc2c1`
355

Write down λc (critical wavelength) measured for item `O=S(=O)(O)c1ccc2[nH]c(-c3ccc(O)c(O)c3O)nc2c1`
383

// Input: `O=S(=O)(O)c1ccc2[nH]c(-c3ccc(O)cc3)nc2c1` . Output its λc (critical wavelength) only.
346

Quick one: give measured λc (critical wavelength) for `O=S(=O)(O)c1ccc2[nH]c(-c3ccc(O)c(O)c3)nc2c1`
358

Tell us which λc (critical wavelength) value is on record for `O=C(O)c1ccc2[nH]c(-c3ccc(O)cc3O)nc2c1`
368

Supply λc (critical wavelength) value. Item: O=S(=O)(O)c1ccc2[nH]c(-c3ccccc3)nc2c1 [PBSA, reference compound]
333

Please indicate λc (critical wavelength) recorded for `O=C(O)c1ccc2[nH]c(-c3ccc(O)c(O)c3O)nc2c1`
382

Return reported λc (critical wavelength). Input compound: `Oc1ccc(-c2nc3ccccc3[nH]2)cc1O`
368

Attribution: paper PMC6010047
